Experiment: Human HepG2 cell viability assay in 384 well format
Assay type: toxicity, cell-based
Parameters: dose 125 nL, time 70.5 hour; concentration not given beside the values
Conditions: HepG2 cells, read-out: Inhibition
Answer each item with its documented cytotoxicity at 70.5 h.
// units = %; emit number, no label

Any idea what cytotoxicity at 70.5 h was measured for CCN(Cc1cnn(C)c1)C[C@H]1CC[C@@H](Cc2ccc(CO)cc2)O1 ?
-3.31

Give the measured cytotoxicity at 70.5 h of COc1c(C2CCCN2C(=O)c2ccco2)c(C)nn1C (configuration not stated) .
8.77

Entry Cc1cnn(CCNC(C)c2nnc(-c3ccccc3)o2)c1 (configuration not stated) : reported cytotoxicity at 70.5 h = ?
-7.05

What does the data say about its cytotoxicity at 70.5 h? Entry: Cc1nc2cc(C3CCCCN3C(=O)C3CC3)nn2c(O)c1C (configuration not stated)
-2.34

Would you mind telling me what cytotoxicity at 70.5 h value was observed for CCC(C)N(Cc1ccncc1)C(=O)CCC(=O)OC (configuration not stated) ?
4.04

Need cytotoxicity at 70.5 h of COC1CCN(CCNC(=O)NC(C)c2cccc(Cl)c2)CC1 (configuration not stated) , thanks.
-0.888

Requested field: cytotoxicity at 70.5 h. Item: CCOCc1cnc2n1CCN(Cc1scnc1C)C2C (configuration not stated)
-3.25

Which cytotoxicity at 70.5 h reading was recorded for the compound Cc1ccc(S(=O)(=O)N2C[C@H]3C[C@H](NC(=O)c4cc(C)no4)[C@H]3C2)cc1 ?
-3.09

So what's the measured cytotoxicity at 70.5 h for this one? COc1ccc(Cl)cc1-c1nc(N)nc(N(C)C)n1
-6.28

Quick one: cytotoxicity at 70.5 h for CCS(=O)(=O)N[C@@H]1CN(Cc2cc(C)on2)C[C@@H]2CCCO[C@@H]21 ?
-10.1

What does the record list as cytotoxicity at 70.5 h for CC[C@@H]1N(Cc2ccc(F)cc2)CCC[C@]12CCC(=O)N2CCOC ?
10.3

Entry O=C1CCCN1CCN1CCCCC1Cn1cncn1 (configuration not stated) : reported cytotoxicity at 70.5 h = ?
17.7

The values you see were collected from ChEMBL document CHEMBL3507680.
